# System: Candida albicans ATCC 90029
# Run description: MIC assay (CLSI M27-A3), Candida albicans ATCC 90029
# Assay type: cell-based
# Conditions: Candida albicans, ATCC90029; first batch; 24 h, 35° C.; ≥50% growth inhibition; read-out: MIC, Candida albicans ATCC 90029
Readout type: MIC (mg/L)

[
  {
    "Molecule": "CCCCCOc1ccc(-c2ccc(-c3ccc(C(=O)N[C@H]4C[C@@H](O)[C@@H](OCC[N+]5(C)CCCC5)NC(=O)[C@@H]5[C@@H](O)[C@@H](C)CN5C(=O)[C@H]([C@@H](C)O)NC(=O)[C@H]([C@H](O)[C@@H](O)c5ccc(O)cc5)NC(=O)[C@@H]5C[C@@H](O)CN5C(=O)[C@H]([C@@H](C)O)NC4=O)cc3)cc2)cc1 [Example 5]",
    "Readout units": "mg/L",
    "Reported result": 0.125
  }
]

----------
# Tested on: Candida albicans (azole drug-resistant strain) R358
# Run description: MIC assay (CLSI M27-A3), Candida albicans azole drug-resistant strain R358
# Format: cell-based
# Conditions: Candida albicans; second batch; read-out: MIC, Candida albicans (azole drug-resistant strain) R358
MIC: recorded values
Readout type: MIC (µg/mL)

[
  {
    "Compound": "CCCCCOc1ccc(-c2ccc(-c3ccc(C(=O)N[C@H]4C[C@@H](O)[C@@H](O[C@@H](C)C[N+](C)(C)C)NC(=O)[C@@H]5[C@@H](O)[C@@H](C)CN5C(=O)[C@H]([C@@H](C)O)NC(=O)[C@H]([C@H](O)[C@@H](O)c5ccc(O)cc5)NC(=O)[C@@H]5C[C@@H](O)CN5C(=O)[C@H]([C@@H](C)O)NC4=O)cc3)cc2)cc1 [Example 24]",
    "Assayed target": "Candida albicans (azole drug-resistant strain) R358",
    "Readout type": "MIC",
    "Reported result": 0.0625
  },
  {
    "Compound": "CCCCCOc1ccc(-c2ccc(-c3ccc(C(=O)N[C@H]4C[C@@H](O)[C@@H](OC[C@H](C)[N+](C)(C)C)NC(=O)[C@@H]5[C@@H](O)[C@@H](C)CN5C(=O)[C@H]([C@@H](C)O)NC(=O)[C@H]([C@H](O)[C@@H](O)c5ccc(O)cc5)NC(=O)[C@@H]5C[C@@H](O)CN5C(=O)[C@H]([C@@H](C)O)NC4=O)cc3)cc2)cc1 [Example 22]",
    "Assayed target": "Candida albicans (azole drug-resistant strain) R358",
    "Readout type": "MIC",
    "Reported result": 0.25
  },
  {
    "Compound": "CCCCCOc1ccc(-c2ccc(-c3ccc(C(=O)N[C@H]4C[C@@H](O)[C@@H](O[C@H]5CC[N+](C)(C)C5)NC(=O)[C@@H]5[C@@H](O)[C@@H](C)CN5C(=O)[C@H]([C@@H](C)O)NC(=O)[C@H]([C@H](O)[C@@H](O)c5ccc(O)cc5)NC(=O)[C@@H]5C[C@@H](O)CN5C(=O)[C@H]([C@@H](C)O)NC4=O)cc3)cc2)cc1 [Example 26]",
    "Assayed target": "Candida albicans (azole drug-resistant strain) R358",
    "Readout type": "MIC",
    "Reported result": 0.25
  },
  {
    "Compound": "CCCCCOc1ccc(-c2ccc(-c3ccc(C(=O)N[C@H]4C[C@@H](O)[C@@H](OC[C@@H](C)[N+](C)(C)C)NC(=O)[C@@H]5[C@@H](O)[C@@H](C)CN5C(=O)[C@H]([C@@H](C)O)NC(=O)[C@H]([C@H](O)[C@@H](O)c5ccc(O)cc5)NC(=O)[C@@H]5C[C@@H](O)CN5C(=O)[C@H]([C@@H](C)O)NC4=O)cc3)cc2)cc1 [Example 23]",
    "Assayed target": "Candida albicans (azole drug-resistant strain) R358",
    "Readout type": "MIC",
    "Reported result": 0.125
  },
  {
    "Compound": "CCCCCOc1ccc(-c2ccc(-c3ccc(C(=O)N[C@H]4C[C@@H](O)[C@@H](O[C@@H]5CC[N+](C)(C)C5)NC(=O)[C@@H]5[C@@H](O)[C@@H](C)CN5C(=O)[C@H]([C@@H](C)O)NC(=O)[C@H]([C@H](O)[C@@H](O)c5ccc(O)cc5)NC(=O)[C@@H]5C[C@@H](O)CN5C(=O)[C@H]([C@@H](C)O)NC4=O)cc3)cc2)cc1 [Example 25]",
    "Assayed target": "Candida albicans (azole drug-resistant strain) R358",
    "Readout type": "MIC",
    "Reported result": 0.25
  },
  {
    "Compound": "CCCCCOc1ccc(-c2ccc(-c3ccc(C(=O)N[C@H]4C[C@@H](O)[C@@H](OC[C@H]5CCC[N+]5(C)C)NC(=O)[C@@H]5[C@@H](O)[C@@H](C)CN5C(=O)[C@H]([C@@H](C)O)NC(=O)[C@H]([C@H](O)[C@@H](O)c5ccc(O)cc5)NC(=O)[C@@H]5C[C@@H](O)CN5C(=O)[C@H]([C@@H](C)O)NC4=O)cc3)cc2)cc1 [Example 13]",
    "Assayed target": "Candida albicans (azole drug-resistant strain) R358",
    "Readout type": "MIC",
    "Reported result": 0.25
  }
]

Origin of the recorded values: patent US12466856B2
